Listed molecules paired with reported cell viability
System: P12-Ichikawa
ASSAY: cell viability relative to DMSO control; higher = less cytotoxic
EXPERIMENTAL_CONDITIONS: HPLM + 10% dialyzed FBS; 48 h; 5.12 µM
Respond with the bare value in %.

Sample records with cell viability:
ClC1=CC\2=C(NC(=O)\C(=C2N[C@@H]3CN4CCC3CC4)C5=NC6=C([NH]5)C=CC=C6)C=C1: 8.98
O=C(Nc1ncc(SCCN2CCCC2)s1)[C@]1(c2ccc([S+](=O)([O-])C3CC3)cc2)C[C@H]1C1CCCCC1: 111
CC(C)c1cnn2c(NCc3ccccc3)cc(NCCCCCCN)nc12: 116
CN1CCC[C@@H]1CCO[C@](C)(c1ccccc1)c1ccc(Cl)cc1: 112

# next molecule below
Problem: For the molecule shown here, COc1cc([C@H]2Oc3cc([C@H]4Oc5cc(O)cc(O)c5C(=O)[C@@H]4O)ccc3O[C@@H]2CO)ccc1O , give the reported cell viability.
Result: 105
